Source listed as patent US20080026996A1.

# system_tested: T1, rat VPAC1 receptor (rat, UniProt P30083 31-459)
# T1 sequence (looked up): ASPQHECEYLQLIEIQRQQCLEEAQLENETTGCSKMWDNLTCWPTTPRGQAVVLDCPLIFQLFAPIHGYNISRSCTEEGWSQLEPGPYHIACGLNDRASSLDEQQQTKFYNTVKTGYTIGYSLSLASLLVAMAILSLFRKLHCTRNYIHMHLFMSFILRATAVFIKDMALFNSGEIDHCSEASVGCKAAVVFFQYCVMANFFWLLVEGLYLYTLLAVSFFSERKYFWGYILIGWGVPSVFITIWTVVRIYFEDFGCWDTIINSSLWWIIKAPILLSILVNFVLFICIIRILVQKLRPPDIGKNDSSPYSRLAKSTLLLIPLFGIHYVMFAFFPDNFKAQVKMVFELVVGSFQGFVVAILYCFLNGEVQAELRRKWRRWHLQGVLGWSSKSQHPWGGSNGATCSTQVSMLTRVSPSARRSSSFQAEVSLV
# assay_text: cell-based or functional assay
Where no end group is shown, it is not given here. [ ]: non-standard residue; d: D form. The star is where a group is joined. Nle = CCCC[C@H](N)C(=O)O; Hexanoyl = CCCCCC(=O)*; Aib = CC(C)(N)C(=O)O
Threshold 5 nM: EC50 cAMP, DiscoveRx strictly smaller gives Satisfied, otherwise Not satisfied.

Use these answered entries as a reference point.
INSERT INTO results (binder, assigned_category) VALUES
  ('Hexanoyl-HSDAVFTDNYTRLRKQVAA[Aib]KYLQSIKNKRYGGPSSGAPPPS (ends and bridges not checked) [P169]', 'Satisfied'),
  ('HSDAVFTDNYTXLRXQVAAXKYLQSIXNXGGPSSGAPPPS (N-terminal hexanoyl (C6); Orn at 12, 27, 29; Aib at 15, 20) [P326]', 'Satisfied'),
  ('Hexanoyl-HSDAVFTDNYTRL[Aib]KQVAAK[Aib]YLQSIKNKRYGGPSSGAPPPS (ends and bridges not checked) [P244]', 'Not satisfied'),
  ('Hexanoyl-HSDAVFTDNYTRLR[Aib]Q[Nle]AA[Aib]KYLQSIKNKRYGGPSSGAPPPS (ends and bridges not checked) [P325]', 'Satisfied');

Please find the next binder below.
Incoming: Dear reviewer, please state whether MHSDAVFTDNYTRLRKQVAAKKYLQSIKNKRYGGPSSGAPPPS (N-terminal methionine added (M-), also called VPAC2-P104) [P104] has EC50 cAMP, DiscoveRx strictly beneath 5 nM.
Outgoing: Not satisfied
